Test system: HEK-293T
Experiment: Multiplex assay against HEK293T
Type: toxicity, cell-based
Conditions: human, 48 h, 10 µM, compound concentration 10 uM, replicate 2
ENDPOINT NAME: Population Healthy Nuclei (%)

INSERT INTO assay_data (compound, result) VALUES
  ('CCn1c(-c2nonc2N)nc2cnc(Oc3cccc(NC(=O)c4ccc(OCCN5CCOCC5)cc4)c3)cc21 [GSK-269962A]', '56%'),
  ('CNc1oc(-c2cccc3ccccc23)nc1C#N', '14%'),
  ('Cc1cc2c(cc1N1C(=O)c3cccc4c(CCCO)ccc(c34)C1=O)n(C)c(=O)n2C', '75%'),
  ('Nc1ccc(C(=O)Nc2cccc(-c3nc(N4CCOCC4)c4oc5ncccc5c4n3)c2)cn1', '18%'),
  ('C1=N/C2=N/c3ccc(OCCN4CCCC4)c(c3)COC/C=C\COCc3cccc(c3)C(=C1)N2', '18%'),
  ('O=C(O)c1ccc2cc(-c3ccc(O)c(C45CC6CC(CC(C6)C4)C5)c3)ccc2c1 [O-DEMETHYLATED ADAPALENE]', '33%'),
  ('CCc1cc2c(cc1CC)CC(NC[C@H](O)c1ccc(O)c3[nH]c(=O)ccc13)C2 [INDACATEROL]', '17%'),
  ('COc1cc(N2CCC(N(C)C)CC2)ccc1Nc1ncc(Cl)c(Nc2ccccc2P(C)(C)=O)n1', '17%'),
  ('Cl.Cl.Nc1ncnc2c1c(-c1cccc(OCc3ccccc3)c1)cn2[C@H]1C[C@@H](CN2CCC2)C1', '17%'),
  ('COc1ccc(NS(=O)(=O)c2sc3ccc(Cl)cc3c2C)cc1N1CCNCC1.Cl', '28%');
